System: CEM (human lymphoblastoid leukemia)
method: In vitro cytotoxic activity, Calcein AM
Format: cell-based
measurement context: Homo sapiens, 72 h, three days
measurement type: GI50 (µM)
One number for each entry, in µM.

{"columns": ["molecule", "measurement type", "unit label", "result value"],
 "data": [
  ["CC(C)c1n[nH]c2c(Nc3cccc(Cl)c3)nc(NCCCO)nc12", "GI50", "µM", 15],
  ["CC(C)c1n[nH]c2c(NCc3cccc(O)c3)nc(N[C@@H](CO)C(C)C)nc12", "GI50", "µM", 4.9],
  ["CC[C@H](CO)Nc1nc(Nc2ccc(C(=O)O)c(Cl)c2)c2[nH]nc(C(C)C)c2n1", "GI50", "µM", 7.9],
  ["CC(=O)c1ccccc1CNc1nc(N[C@@H](CO)C(C)C)nc2c(C(C)C)n[nH]c12", "GI50", "µM", 14.5],
  ["Cc1n[nH]c2c(Nc3cccc(Cl)c3)nc(NCCO)nc12", "GI50", "µM", 8.9],
  ["Cc1n[nH]c2c(NCc3ccc(Cl)c(N)c3)nc(NCCO)nc12", "GI50", "µM", 12.4]
]}

Working through the 4 molecules below one at a time, give GI50 for each.
1. Cc1n[nH]c2c(NCc3ccccc3)nc(N[C@@H](CO)C(C)C)nc12
2. CC(=O)Oc1ccccc1CNc1nc(NCCO)nc2c(C)n[nH]c12
3. CC(C)c1n[nH]c2c(NCc3ccccc3)nc(NC3CCC(N)CC3)nc12 (stereo not shown)
4. Cc1n[nH]c2c(NCc3ccccc3)nc(NC3CCC(N)CC3)nc12 (stereo not shown)

Result ::
[2.8, 14.5, 1.5, 1.7]
